Cited source for all entries: PubChem BioAssay (NCI)

test system: NCI/ADR-RES ovarian; assay: NCI-60 one-dose screen, 48 h; details: 10 µM
The panel holds about 83,000 compounds, 20% with a hit somewhere; the sample as a whole holds those more often. Activity calls are given as the source filed them. The calls were made as follows: active = growth percent below 10; inactive = the rest.
The reply should be one of these categories: active, inactive

Solved entries (count: 5):
compound: c1ccc(CNc2ncnc3scc(-c4cccs4)c23)nc1
category: inactive

compound: COc1ccc2c(c1)/C(=C\c1c[nH]c3ccc(OC)cc13)C(=O)N2
category: inactive

compound: O=C(Nc1cccc(-n2cc(-c3ccncc3)c(-c3cc(O)cc(Cl)c3)n2)c1)c1cc(C(F)(F)F)cc(C(F)(F)F)c1
category: inactive

compound: O=C(c1cccs1)c1ccccc1Cc1ccccc1
category: inactive

compound: COc1ccc(Nc2nc3ccc(NC(=O)NC4CCCCC4)cc3[nH]c2=O)cc1
category: inactive

Exam item: # fetch the recorded call for "Cc1cc(C)c(CCc2cc(C)c(C)cc2C)cc1C" here
Marked response: inactive

Exam item: Tell me the assay call for "COc1ccc(/C(=C2\O[C@@H]([C@H]3COC(C)(C)O3)[C@H]3OC(C)(C)O[C@@H]23)c2cc(OC)c(OC)c(OC)c2)cc1O" please.
Marked response: inactive

Exam item: Just curious, what result did "Clc1ccc(Nc2ccnc(NCCNc3ccnc4cc(Cl)ccc34)n2)cc1" get here?
Marked response: inactive

Exam item: Can you look up the reported call for "COc1ccc2c(c1)sc1nc(-c3ccccc3)c(-c3cccnc3)n12" for me?
Marked response: inactive

Exam item: Name the outcome recorded for "CC(=O)N(C)c1ccc(Nc2ccc(Nc3ccc(N(C)C(C)=O)cc3)c3c2C(=O)c2ccccc2C3=O)cc1" in the assay.
Marked response: inactive

Exam item: // outcome(item) with item = "O=C(C[P+](c1ccccc1)(c1ccccc1)c1ccccc1)C[P+](c1ccccc1)(c1ccccc1)c1ccccc1"
Marked response: active

Exam item: Query: recorded result category for "COc1ccc2c(c1)nc(N)c1c3cccnc3cn21" in this test
Marked response: active

Exam item: Could you check what this test reported for "CCOC(=O)CNC(=O)CCCCSc1ncnc2nc[nH]c12" ?
Marked response: inactive

###

test system: UACC-257 melanoma; test: NCI-60 one-dose screen, 48 h (100 = growth as untreated, 0 = no growth, -100 = all killed); conditions: 10 µM
This is part of a sample that, as a whole, favours compounds with a hit. Of some 83,000 tested, about 20% had one in any assay.
# growth annotations
Write it as a number; the unit % goes unstated.

compound: CN(Cc1ccccc1)Cc1ccc([N+](=O)[O-])cc1I
unit_tag: %
growth: 103

compound: CN(C)N=Nc1nn(C(=O)Nc2ccc(Cc3ccccc3)cc2)c2ccccc12
unit_tag: %
growth: 29.3

compound: COc1ccc(-c2nn(-c3cccc(NC(=O)Nc4cc(C(F)(F)F)cc(C(F)(F)F)c4)c3)cc2-c2ccncc2)cc1Cl
unit_tag: %
growth: -31

Exam item: Give the reported value of growth for this record: CCN(CC)CCC(CNc1c(C)cnc2cc(Cl)ccc12)c1ccc(Cl)cc1 (stereo not given)
Marked response: -58.3

Exam item: State its growth: "O=S(=O)(Nc1ccccn1)c1ccc(N=Nc2ccc(O)c3ncccc23)cc1"
Marked response: -23.5

###

system: A549/ATCC NSCLC; test: NCI-60 one-dose screen, 48 h (100 = growth as untreated, 0 = no growth, -100 = all killed); details: 10 µM
Compounds without any hit were thinned out: in the full panel of roughly 83,000, 20% have a hit.
I would appreciate it if you labelled entries TRUE when growth is 20% or higher, otherwise FALSE.

Consider the worked cases shown below.
compound: C/C(=N\Nc1nc2ccccc2s1)c1ccncn1
category: TRUE

compound: COc1cccc(C2C3=C(COC3=O)N(CCO)c3cc(OC)ccc32)c1 (stereo unspecified)
category: FALSE

compound: c1ccc([I+]c2ccccc2)cc1
category: TRUE

compound: COc1cc(/C(=C2/O[C@@H]([C@H]3COC(C)(C)O3)[C@H]3OC(C)(C)O[C@@H]23)c2ccc3ccccc3c2)cc(OC)c1OC
category: FALSE

Exam item: Is growth at least 20%? Consider COc1cc(NC(=O)c2sc3nc4c(cc3c2N)C(O)CCC4)cc(OC)c1 (stereo unspecified)
Marked response: TRUE

Exam item: Form field: growth at least 20%? Entry: "CC1(C)N=C(N)N=C(N)N1c1ccc(CCc2ccccc2)c(Cl)c1"
Marked response: FALSE

###

system: UACC-257 melanoma; assay: NCI-60 one-dose screen, 48 h (100 = growth as untreated, 0 = no growth, -100 = all killed); details: 10 µM
Compounds without any hit were thinned out: in the full panel of roughly 83,000, 20% have a hit.
assay_endpoint: growth (%)
Form entry: value (%) — number only.

Please review the entries below; each comes with its answer.
molecule: Nc1nc(N)c(NC(=O)CNc2ccc(C(=O)O)cc2)c(N)n1
unit_tag: %
growth: 103
//
molecule: CN(C)c1ccc(Cc2ccc(N(C)C)cc2Cl)c(Cl)c1
unit_tag: %
growth: 110
//
molecule: COc1cc(Cl)cc(-c2nn(-c3cccc(NC(=O)c4ccc(N5CCOCC5)c(C(F)(F)F)c4)c3)cc2-c2ccncc2)c1
unit_tag: %
growth: 63.6
//
molecule: Cc1cc(Cc2cc(C)c(O)c(C)c2)cc(C)c1O
unit_tag: %
growth: 51.5
//
molecule: O=C(CC(NC(=O)OCc1ccccc1)C(=O)OCc1ccccc1)OCc1ccccc1 (stereo unspecified)
unit_tag: %
growth: 94.2

Exam item: Give reported growth for "CCN(CC)Cc1cc(Nc2ccnc3cc(Cl)ccc23)ccc1OC" (UACC-257 melanoma)
Marked response: 94.4

Exam item: Answer with growth of "COc1cc2cc3c(nc2cc1OC)CCN3Cc1ccc(NC(=O)Nc2cc(C(F)(F)F)cc(C(F)(F)F)c2)cc1" measured for UACC-257 melanoma.
Marked response: 89

Exam item: Would you please give the reported growth of COc1ccc(NC2=NC(C)(CO)CS2)cc1 (stereo unspecified) with UACC-257 melanoma?
Marked response: -25.7

Exam item: Supply growth measured with UACC-257 melanoma for "O=[N+]([O-])c1ccc(Oc2cc(Cl)c(Cl)cc2Cl)c(C(F)(F)F)c1" .
Marked response: 100

Exam item: Look up and report measured growth (UACC-257 melanoma) for the following molecule: "CCC(=O)N1C/C(=C/c2ccc(Br)cc2)C(=O)/C(=C/c2ccc(Br)cc2)C1"
Marked response: -46.1

Exam item: For UACC-257 melanoma, give growth of the listed molecule: "COc1cc(Cl)cc(-c2nn(-c3cccc(NC(=O)c4ccc(Cl)c(Cl)c4)c3)cc2-c2ccncc2)c1"
Marked response: 84.2

Exam item: Give UACC-257 melanoma growth for the following molecule: "COc1cc(Cc2cc(-c3ccc(Cl)cc3)n[nH]c2=O)ccc1O"
Marked response: 128

Exam item: Write growth of "Nc1nc(N=Nc2ccc(O)cc2)cc(=O)[nH]1" ; system used: UACC-257 melanoma
Marked response: 112

###

test system: UACC-62 melanoma; experiment: NCI-60 one-dose screen, 48 h; conditions: 10 µM
The panel holds about 83,000 compounds, 20% with a hit somewhere; the sample as a whole holds those more often. The source made the active and inactive calls. Rule for the calls: active = growth percent below 10; inactive = the rest.
Bench note: report the call from active, inactive

compound: COc1cccc(NC(=O)c2sc3nc4c(cc3c2N)C(O)CCC4)c1 (stereo unspecified)
experimental_system: UACC-62 melanoma
category: inactive
//
compound: CCN(CC)CCC(CNc1c(C)cnc2cc(Cl)ccc12)c1ccc(Cl)cc1 (stereo unspecified)
experimental_system: UACC-62 melanoma
category: active
//
compound: Nc1nc(N=Nc2ccc(O)cc2)cc(=O)[nH]1
experimental_system: UACC-62 melanoma
category: inactive
//
compound: O=C1Nc2ccccc2C1=NC1CCCCC1
experimental_system: UACC-62 melanoma
category: inactive
//
compound: CN(C)C=Nc1cc(Cl)ccc1Cl
experimental_system: UACC-62 melanoma
category: inactive

Exam item: Check the results log: what was the call for "Cn1c([N+](=O)[O-])cnc1/C=C1\Oc2cc(Cl)ccc2C1=O" ?
Marked response: active

Exam item: Returns: the outcome recorded for "COc1ccc(-c2nc3sc(C4CC4)nn3c2/C=C2/C(=O)Nc3ccc(OC)cc32)cc1" in this assay.
Marked response: inactive

Exam item: Test call for this compound, please: O=C1OCC2=C1C(c1cccc(Cl)c1)c1cc3c(cc1N2CCO)OCCO3 (stereo unspecified)
Marked response: inactive

Exam item: What classification did "COc1ccc2c(c1)sc1nc(-c3ccccc3)c(-c3cccnc3)n12" end up with in this test?
Marked response: inactive

Exam item: # outcome recorded in this test, key = "N=C(N)c1ccc(-c2ccc(-c3ccccc3)o2)nc1"
Marked response: inactive

Exam item: // return assay outcome for "CCN(CC)Cc1cc(Nc2ccnc3cc(Cl)ccc23)ccc1OC"
Marked response: inactive

###

Test system: SN12C renal
Assay: NCI-60 one-dose screen, 48 h (100 = growth as untreated, 0 = no growth, -100 = all killed)
Conditions: 10 µM
Method: Growth inhibition of the SN12C human tumor cell line is measured as a screen for anti-cancer activity. Cells are grown in 96 well plates and exposed to the test compound for 48 hours. Compounds are tested at a single concentration, which is 10^-5 M for most compounds. The reported endpoint is percent growth (GI% or GIPRCNT), where numbers from 0 - 100% represent growth inhibition, and numbers from -100% - 0 represent cell death. For example, a value of 40 represents 60% growth inhibition. […]
The panel holds about 83,000 compounds, 20% with a hit somewhere; the sample as a whole holds those more often.
assay_endpoint: growth (%)
Reply with just the number (in %).

smiles_representation: O=C(Nc1cccc(-n2cc(-c3ccncc3)c(-c3ccc(O)c(Cl)c3)n2)c1)Nc1cccc(C(F)(F)F)c1
growth, %: 10.3
//
smiles_representation: O=C(Nc1cccc(-n2cc(-c3ccncc3)c(-c3ccc(O)c(Cl)c3)n2)c1)Nc1ccc(Cl)c(Cl)c1
growth, %: 17
//
smiles_representation: CN1c2ccccc2[C@]2(Cc3ccccc3)Cc3ccccc3N[C@H]12
growth, %: 109
//
smiles_representation: N#CCCN1C/C(=C/c2ccc(Br)cc2)C(=O)/C(=C/c2ccc(Br)cc2)C1
growth, %: -51.2
//
smiles_representation: COc1ccc2c(c1)C(=O)c1c-2c(OCCN(C)C)nc2cc(OC)c(OC)cc12
growth, %: 51.9

Exam item: Tell me its growth given "Cc1cc(C)c2c(n1)sc1c(Nc3ccc(Cl)cc3)ncnc12" as the entry.
Marked response: -20.9

Exam item: Look up and report measured growth for this entry: "Cc1ccc(S(=O)(=O)OCCN(CCOS(=O)(=O)c2ccc(C)cc2)c2c[nH]c(=O)[nH]c2=O)cc1"
Marked response: 97.4

Exam item: Using the record for "Clc1ccc(-c2cn(-c3ccccc3)c(-c3ccccc3)n2)c(Cl)c1" , state its measured growth.
Marked response: 12.2

Exam item: Give growth for the following molecule: "CC1(C)Cc2c(sc3ncn4nc(-c5ccc(O)cc5)nc4c23)CO1"
Marked response: 63.5
